Reference source: patent US11524944B2

- tested.target: Human AhR (Homo sapiens)
- Sequence (P35869 11-848): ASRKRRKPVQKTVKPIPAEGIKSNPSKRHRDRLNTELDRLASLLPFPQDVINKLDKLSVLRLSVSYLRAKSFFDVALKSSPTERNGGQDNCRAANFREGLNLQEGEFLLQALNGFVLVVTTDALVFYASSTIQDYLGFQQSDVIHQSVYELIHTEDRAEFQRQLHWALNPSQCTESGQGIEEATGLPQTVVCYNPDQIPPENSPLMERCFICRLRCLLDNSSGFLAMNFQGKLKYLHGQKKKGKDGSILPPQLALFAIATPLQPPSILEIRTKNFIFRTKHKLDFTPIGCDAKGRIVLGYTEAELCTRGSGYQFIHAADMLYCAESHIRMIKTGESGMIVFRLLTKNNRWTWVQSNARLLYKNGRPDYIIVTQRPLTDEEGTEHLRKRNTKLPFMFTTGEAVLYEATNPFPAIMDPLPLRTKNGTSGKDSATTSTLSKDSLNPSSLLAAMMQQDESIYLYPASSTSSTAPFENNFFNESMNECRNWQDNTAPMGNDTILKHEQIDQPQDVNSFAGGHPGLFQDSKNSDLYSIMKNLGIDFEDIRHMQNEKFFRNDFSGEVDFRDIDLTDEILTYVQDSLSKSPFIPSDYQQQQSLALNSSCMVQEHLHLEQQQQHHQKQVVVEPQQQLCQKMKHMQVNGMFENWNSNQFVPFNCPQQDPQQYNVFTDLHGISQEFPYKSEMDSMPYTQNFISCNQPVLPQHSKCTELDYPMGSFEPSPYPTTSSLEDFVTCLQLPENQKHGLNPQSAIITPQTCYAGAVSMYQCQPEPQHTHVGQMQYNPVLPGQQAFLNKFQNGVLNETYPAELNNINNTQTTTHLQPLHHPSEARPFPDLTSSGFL
- assay.notes: Transactivation assay in human cell line (in vitro assay 1): antagonism
- condition.label: U87 glioblastoma cells, AHR inducible firefly luciferase reporter (DRE), 150 μM kynurenic acid, 20 hours
reported.endpoint: IC50 (nM)

Cc1cc(-c2nc(C(=O)N[C@@H](C)CO)cc(-c3ccc(Cl)cc3)n2)ccc1F ... 48.5
CC(C)(O)CNC(=O)c1cc(-c2ccc(Cl)cc2)nc(-c2ccc(Cl)cc2)n1 ... 9790
C[C@@H](CO)NC(=O)c1cc(-c2ccc(OC(F)(F)F)cc2)nc(-c2ccc(F)c(Cl)c2)n1 ... 98.4
C[C@@H](CO)NC(=O)c1cc(-c2ccc(OC(F)(F)F)cc2)nc(-c2ccc(Cl)c(Cl)c2)n1 ... 4350
C[C@@H](CO)NC(=O)c1cc(-c2ccc(Cl)cc2)nc(-c2ccc(F)c(C#N)c2)n1 ... 102

1. C[C@@H](CO)NC(=O)c1cc(-c2ccc(OC(F)(F)F)cc2)nc(-c2ccc(Cl)cc2)n1
2. Cc1cc(-c2nc(C(=O)N[C@@H](C)CO)cc(-c3ccc(OC(F)(F)F)cc3)n2)ccc1F
Ask: Between 1 and 2 , which one shows the smaller IC50 number? Kindly state the label of the option you pick.
Result: 2
